- SYSTEM NAME: EPC2; also: reference of the scale not given here
- METHOD SUMMARY: pooled miR-30 sensor sort-seq; sequence = guide strand
- CONDITION CONTEXT: shRNA
PROPERTY LABEL: sensor-assay potency score (higher = more potent)
# respond with the number and nothing more

Here are 4 sequences together with their reported answers.
[
  {
    "SEQUENCE": "TATAACTCTTTTTCTGATCTAC",
    "SYSTEM NAME": "EPC2",
    "NUMERIC RESULT": 0.207
  },
  {
    "SEQUENCE": "TTTTTCTCTAAACACTTGCTGT",
    "SYSTEM NAME": "EPC2",
    "NUMERIC RESULT": -0.823
  },
  {
    "SEQUENCE": "TTGCATCTGAACTAACTGCTGC",
    "SYSTEM NAME": "EPC2",
    "NUMERIC RESULT": 0.128
  },
  {
    "SEQUENCE": "TTAATTTCCATCTTTCTGTTAA",
    "SYSTEM NAME": "EPC2",
    "NUMERIC RESULT": -0.679
  }
]

Incoming: Item "TTTCTCTAAACACTTGCTGTGC" has what recorded sensor-assay potency score (higher = more potent)?
Outgoing: -0.595

Incoming: Item "TAGTTTTACATTCTTGAACTTT" has what recorded sensor-assay potency score (higher = more potent)?
Outgoing: -0.105

Incoming: Item "TTATTGTTCACAGTCTGCCCTG" has what recorded sensor-assay potency score (higher = more potent)?
Outgoing: -0.344
